Molecular target: Neutrophil elastase (Homo sapiens, UniProt P08246)
Sequence (P08246 whole entry): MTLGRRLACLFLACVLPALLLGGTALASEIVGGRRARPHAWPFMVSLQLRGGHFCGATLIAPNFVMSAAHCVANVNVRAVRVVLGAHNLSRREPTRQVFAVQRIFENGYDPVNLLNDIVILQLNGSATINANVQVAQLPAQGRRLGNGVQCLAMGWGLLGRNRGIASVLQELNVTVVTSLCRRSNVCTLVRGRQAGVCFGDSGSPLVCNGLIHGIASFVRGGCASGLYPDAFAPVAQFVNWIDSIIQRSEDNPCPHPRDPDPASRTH
Assay: Inhibitory concentration which is required to cause 50% inhibition of human leukocyte elastase (HLE) enzyme
VALUE_KIND: IC50 (µM)

>  <SMILES_REPRESENTATION>
CC(=O)OCC1=C(C(=O)OC(C)(C)C)N2C(=O)[C@H](OCc3ccccc3)[C@H]2S(=O)(=O)C1

>  <VALUE_KIND>
IC50

>  <OPERATOR>
>

>  <RECORDED_MEASUREMENT>
10

$$$$
>  <SMILES_REPRESENTATION>
CO[C@@H]1C(=O)N2C(C(=O)OC(C)(C)C)=C(COC(C)=O)CS(=O)(=O)[C@H]12

>  <VALUE_KIND>
IC50

>  <OPERATOR>
>

>  <RECORDED_MEASUREMENT>
40

$$$$
>  <SMILES_REPRESENTATION>
CC(=O)OCC1=C(C(=O)OC(C)(C)C)N2C(=O)[C@@H](NC(=O)C(F)(F)F)[C@H]2S(=O)(=O)C1

>  <VALUE_KIND>
IC50

>  <OPERATOR>
>

>  <RECORDED_MEASUREMENT>
40

$$$$
>  <SMILES_REPRESENTATION>
CO[C@H]1C(=O)N2C(C(=O)OC(C)(C)C)=C(COC(C)=O)CS[C@H]12

>  <VALUE_KIND>
IC50

>  <OPERATOR>
=

>  <RECORDED_MEASUREMENT>
10

$$$$
>  <SMILES_REPRESENTATION>
CC(=O)OCC1=C(C(=O)OC(C)(C)C)N2C(=O)[C@H](NC(=O)C(F)(F)F)[C@H]2S(=O)(=O)C1

>  <VALUE_KIND>
IC50

>  <OPERATOR>
=

>  <RECORDED_MEASUREMENT>
2

$$$$
>  <SMILES_REPRESENTATION>
CC(=O)OCC1=C(C(=O)OC(C)(C)C)N2C(=O)[C@@H](NC(=O)Cc3cccs3)[C@H]2S(=O)(=O)C1

>  <VALUE_KIND>
IC50

>  <OPERATOR>
>

>  <RECORDED_MEASUREMENT>
40

$$$$
>  <SMILES_REPRESENTATION>
O=C(O)[C@H]1/C(=C/CO)O[C@@H]2CC(=O)N21

>  <VALUE_KIND>
IC50

>  <OPERATOR>
<

>  <RECORDED_MEASUREMENT>
40

$$$$
>  <SMILES_REPRESENTATION>
CNC(=O)O[C@H]1C(=O)N2C(C(=O)OC(C)(C)C)=C(COC(C)=O)CS(=O)(=O)[C@H]12

>  <VALUE_KIND>
IC50

>  <OPERATOR>
=

>  <RECORDED_MEASUREMENT>
1

$$$$
>  <SMILES_REPRESENTATION>
CCCC[C@H]1C(=O)N2C(C(=O)OC(C)(C)C)=C(COC(C)=O)CS(=O)(=O)[C@H]12

>  <VALUE_KIND>
IC50

>  <OPERATOR>
=

>  <RECORDED_MEASUREMENT>
40

$$$$
>  <SMILES_REPRESENTATION>
CC(=O)OCC1=C(C(=O)OC(C)(C)C)N2C(=O)[C@H](OC(=O)c3ccccc3)[C@H]2S(=O)(=O)C1

>  <VALUE_KIND>
IC50

>  <OPERATOR>
>

>  <RECORDED_MEASUREMENT>
40

$$$$
